assay: PK properties of Form 1E in male dogs under fasted and fed conditions; format: in vivo; conditions: male, dog, plasma, po, 50 mg/kg, pH 7, male dogs, Study B, 50.0 mg/kg, Vehicle 2 (water/MSA pH7.0), Fasted; read-out: t1/2, z (converted)
ASSAY_READOUT: half-life (h)
Output spec: scalar in h, unitless text.

Recorded result, O=C1OCCCc2c(Cl)cc3[nH]ncc3c2-c2ncc3c(nc(OC[C@@]45CCCN4C[C@H](F)C5)nc3c2F)N2CCOC[C@H](C2)O1 [Form 1E] , half-life: 3.47

----------
assay: PK properties of Form 1E in male dogs under fasted and fed conditions; assay type: in vivo; settings: male, dog, plasma, po, 50 mg/kg, pH 7, male dogs, Study B, Vehicle 2 (water/MSA pH7.0), Fed (high fat)
ASSAY_READOUT: Cmax (nM)
Your answer is read as nM, so omit the unit and give the number.

Cmax reading for O=C1OCCCc2c(Cl)cc3[nH]ncc3c2-c2ncc3c(nc(OC[C@@]45CCCN4C[C@H](F)C5)nc3c2F)N2CCOC[C@H](C2)O1 [Form 1E] : 1050

----------
assay: PK properties of Form 1E in male dogs under fasted and fed conditions; format: in vivo; conditions: male, dog, plasma, po, 30 mg/kg, pH 2, male dogs, Study A, 30.0 mg/kg p.o., Vehicle 1 (water/malonic acid pH 2.0), Fasted
ASSAY_READOUT: CL/F (mL/min/kg)
Please respond with the number in mL/min/kg and leave the unit unwritten.

GET /value?item= O=C1OCCCc2c(Cl)cc3[nH]ncc3c2-c2ncc3c(nc(OC[C@@]45CCCN4C[C@H](F)C5)nc3c2F)N2CCOC[C@H](C2)O1 [Form 1E] &field=CL/F returns 73.5

----------
test: PK properties of Form 1E in male dogs under fasted and fed conditions; format: in vivo; conditions: male, dog, plasma, po, 30 mg/kg, pH 2, male dogs, Study A, 30.0 mg/kg p.o., Vehicle 1 (water/malonic acid pH 2.0), Fed (kibble); read-out: t1/2, z (converted)
ASSAY_READOUT: half-life

half-life reading for O=C1OCCCc2c(Cl)cc3[nH]ncc3c2-c2ncc3c(nc(OC[C@@]45CCCN4C[C@H](F)C5)nc3c2F)N2CCOC[C@H](C2)O1 [Form 1E] : 2.96 h

----------
test: PK properties of Form 1E in male dogs under fasted and fed conditions; format: in vivo; conditions: male, dog, plasma, po, 30 mg/kg, pH 2, male dogs, Study A, 30.0 mg/kg p.o., Vehicle 1 (water/malonic acid pH 2.0), Fasted
ASSAY_READOUT: Tmax (min)
Respond with the bare value in min.

According to the records, this molecule O=C1OCCCc2c(Cl)cc3[nH]ncc3c2-c2ncc3c(nc(OC[C@@]45CCCN4C[C@H](F)C5)nc3c2F)N2CCOC[C@H](C2)O1 [Form 1E] displays Tmax of 18.7

----------
assay: PK properties of Form 1E in male dogs under fasted and fed conditions; format: in vivo; details: male, dog, plasma, po, 30 mg/kg, pH 2, male dogs, Study A, 30.0 mg/kg p.o., Vehicle 1 (water/malonic acid pH 2.0), Fasted
ASSAY_READOUT: AUC(0-inf) (µM·h)
Quick reminder: number only, in µM·h, skip the unit.

// recorded AUC(0-inf) for O=C1OCCCc2c(Cl)cc3[nH]ncc3c2-c2ncc3c(nc(OC[C@@]45CCCN4C[C@H](F)C5)nc3c2F)N2CCOC[C@H](C2)O1 [Form 1E] : 14.2
